# Tested on: NCI-H650
# ASSAY EXPLANATION: relative viability (nuclei count vs DMSO), 5 days (fraction); higher = more cells survive
# TEST SETTINGS: first compound 1 µM
Label Fulfilled when relative viability < 0.7; otherwise Not fulfilled.

{"columns": ["COMPOUND", "CLASS NAME"],
 "data": [
  ["O=c1cc(N2CCOCC2)oc2c(-c3cccc4c3sc3ccccc34)cccc12 + NC(=O)Nc1cc(-c2cccc(F)c2)sc1C(=O)N[C@H]1CCCNC1 [AZD7762] (partner 0.2 µM)", "Not fulfilled"],
  ["CCN(CC)CCCCNc1ncc2cc(-c3cc(OC)cc(OC)c3)c(NC(=O)NC(C)(C)C)nc2n1 + NC(=O)Nc1cc(-c2cccc(F)c2)sc1C(=O)N[C@H]1CCCNC1 [AZD7762] (partner 0.2 µM)", "Not fulfilled"],
  ["O=c1cc(N2CCOCC2)oc2c(-c3cccc4c3sc3ccccc34)cccc12 + N=C(N)NC(=N)NCCc1ccccc1 [Phenformin] (partner 250 µM)", "Fulfilled"],
  ["CCN(CC)CCCCNc1ncc2cc(-c3cc(OC)cc(OC)c3)c(NC(=O)NC(C)(C)C)nc2n1 + C[C@]1(O)C[C@@H](c2nc(-c3ccc4ccc(-c5ccccc5)nc4c3)c3c(N)nccn32)C1 [Linsitinib] (partner 1 µM)", "Not fulfilled"]
]}

Ask: Please check: relative viability for CCN(CC)CCCCNc1ncc2cc(-c3cc(OC)cc(OC)c3)c(NC(=O)NC(C)(C)C)nc2n1 + CCNC(=O)c1noc(-c2cc(C(C)C)c(O)cc2O)c1-c1ccc(CN2CCOCC2)cc1 [Luminespib] (partner 0.01 µM) , strictly under 0.7 or not?
Reply: Not fulfilled

Ask: relative viability under 0.7? Item: CCN(CC)CCCCNc1ncc2cc(-c3cc(OC)cc(OC)c3)c(NC(=O)NC(C)(C)C)nc2n1 + CC(C)C[C@H](NC(=O)[C@H](Cc1ccccc1)NC(=O)c1cnccn1)B(O)O [Bortezomib] (partner 0.002 µM)
Reply: Fulfilled

Ask: Answer whether the compound CCN(CC)CCCCNc1ncc2cc(-c3cc(OC)cc(OC)c3)c(NC(=O)NC(C)(C)C)nc2n1 + O=C(c1cc(Cc2n[nH]c(=O)c3ccccc23)ccc1F)N1CCN(C(=O)C2CC2)CC1 [Olaparib] (partner 8 µM) has relative viability strictly less than 0.7
Reply: Fulfilled

Ask: Hello, is relative viability of the following compound strictly smaller than 0.7? O=c1cc(N2CCOCC2)oc2c(-c3cccc4c3sc3ccccc34)cccc12 + Cc1nc(NC(=O)N2CCC[C@H]2C(N)=O)sc1-c1ccnc(C(C)(C)C(F)(F)F)c1 [Alpelisib] (partner 2 µM)
Reply: Not fulfilled
